System: PC-12
Experiment: Inhibition of SOD1 G93A mutant protein aggregation-mediated cytotoxicity in rat PC12 cells expressing yellow fluorescent protein assessed as increase in cell viability relative to radicicol
Assay type: cell-based
Set-up: concentration or dose not given beside the values
Recorded endpoint: Efficacy

| Query smiles | Recorded value |
| --- | --- |
| O=C1CC(=O)CC(c2ccc(Cl)cc2Cl)C1 | 100% |
| O=C1CC(=O)CC(c2ccc(OCCOc3ccccc3)cc2)C1 | 100% |
| O=C1CC(=O)CC(c2ccccc2F)C1 | 100% |

* * *

Assay: Volume of distribution at steady state in Sprague-Dawley rat at 1 mg/kg, iv
Assay type: ADME, organism-based
Design: dose 1 mg/kg, route intravenous
Conditions: in vivo, read-out: Vdss

| Query smiles | Unit abbrev | Vd |
| --- | --- | --- |
| O=C1CC(=O)CC(c2cc(C(F)(F)F)cc(C(F)(F)F)c2)C1 | L/kg | 1.5 |

* * *

Target: UniProtKB Q12809
Sequence (Q12809 whole entry): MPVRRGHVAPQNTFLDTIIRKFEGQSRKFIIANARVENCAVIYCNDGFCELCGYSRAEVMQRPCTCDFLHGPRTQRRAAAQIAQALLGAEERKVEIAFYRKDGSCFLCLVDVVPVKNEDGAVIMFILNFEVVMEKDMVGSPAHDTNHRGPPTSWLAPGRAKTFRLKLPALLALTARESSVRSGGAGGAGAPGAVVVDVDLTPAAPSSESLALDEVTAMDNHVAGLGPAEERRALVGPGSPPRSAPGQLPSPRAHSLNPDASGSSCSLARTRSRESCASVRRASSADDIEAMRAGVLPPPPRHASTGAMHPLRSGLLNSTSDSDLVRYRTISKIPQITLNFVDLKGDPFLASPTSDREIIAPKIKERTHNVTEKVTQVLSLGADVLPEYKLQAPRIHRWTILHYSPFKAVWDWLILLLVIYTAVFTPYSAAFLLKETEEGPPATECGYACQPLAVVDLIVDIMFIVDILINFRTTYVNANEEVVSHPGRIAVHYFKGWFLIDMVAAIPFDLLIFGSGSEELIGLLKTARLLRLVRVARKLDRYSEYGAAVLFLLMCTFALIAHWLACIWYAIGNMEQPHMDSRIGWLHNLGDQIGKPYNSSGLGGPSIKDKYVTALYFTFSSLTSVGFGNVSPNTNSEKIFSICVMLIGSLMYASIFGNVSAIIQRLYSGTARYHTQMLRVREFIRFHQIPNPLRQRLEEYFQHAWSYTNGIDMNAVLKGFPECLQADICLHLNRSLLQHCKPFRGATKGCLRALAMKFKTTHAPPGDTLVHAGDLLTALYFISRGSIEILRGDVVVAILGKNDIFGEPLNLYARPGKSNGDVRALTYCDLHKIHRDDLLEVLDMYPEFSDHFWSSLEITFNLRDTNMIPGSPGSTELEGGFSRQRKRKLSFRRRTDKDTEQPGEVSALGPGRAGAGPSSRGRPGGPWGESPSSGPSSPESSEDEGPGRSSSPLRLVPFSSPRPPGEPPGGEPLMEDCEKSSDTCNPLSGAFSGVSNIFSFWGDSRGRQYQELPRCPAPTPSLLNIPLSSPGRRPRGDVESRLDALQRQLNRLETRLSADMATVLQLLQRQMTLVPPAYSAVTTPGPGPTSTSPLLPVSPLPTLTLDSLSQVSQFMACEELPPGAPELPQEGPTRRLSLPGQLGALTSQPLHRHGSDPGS
Experiment: Inhibition of human ERG expressed in HEK293 cells at 10 uM
Format: cell-based
Conditions: HEK293 cells expressing hERG
Recorded endpoint: inhibition at 10 µM (%)

| Query smiles | Recorded endpoint | Recorded value |
| --- | --- | --- |
| O=C1CC(=O)CC(c2cc(C(F)(F)F)cc(C(F)(F)F)c2)C1 | inhibition at 10 µM | 7.8 |

* * *

Test: Cmax in Sprague-Dawley rat at 1 mg/kg, po
Type: ADME, organism-based
Design: dose 1 mg/kg, route oral
Settings: in vivo
Recorded endpoint: Cmax (ng/mL)

| Query smiles | Recorded value |
| --- | --- |
| O=C1CC(=O)CC(c2cc(C(F)(F)F)cc(C(F)(F)F)c2)C1 | 468 |

* * *

Test: Oral bioavailability in Sprague-Dawley rat at 1 mg/kg
Format: ADME, organism-based
Details: in vivo

| Query smiles | bioavailability / % |
| --- | --- |
| O=C1CC(=O)CC(c2cc(C(F)(F)F)cc(C(F)(F)F)c2)C1 | 89 |

* * *

Experiment: Toxicity in mouse administered as ip starting at 5 mg/kg and doubling the compound bid each day
Format: organism-based
Parameters: dose 5 mg/kg, route intraperitoneal
Details: in vivo
Recorded endpoint: MTD (mg/kg)

| Query smiles | Unit abbrev | Recorded value |
| --- | --- | --- |
| O=C1CC(=O)CC(c2cc(C(F)(F)F)cc(C(F)(F)F)c2)C1 | mg/kg | 80 |

* * *

Assay: Half life in Sprague-Dawley rat at 1 mg/kg, iv
Type: ADME, organism-based
Set-up: dose 1 mg/kg, route intravenous
Conditions: in vivo

| Query smiles | half-life (h) |
| --- | --- |
| O=C1CC(=O)CC(c2cc(C(F)(F)F)cc(C(F)(F)F)c2)C1 | 3.7 |

* * *

Assay: Ratio of drug level in brain to plasma in mutant SOD1 G93A transgenic mouse at 50 mg/kg, ip after 4 hrs
Format: ADME, organism-based
Set-up: dose 50 mg/kg, route intraperitoneal
Details: read-out: BPR
Recorded endpoint: Kp at 4 h

| Query smiles | Recorded value |
| --- | --- |
| O=C1CC(=O)CC(c2cc(C(F)(F)F)cc(C(F)(F)F)c2)C1 | 0.86 |

* * *

Test: in vivo
Conditions: Sprague-Dawley, rat, po, 1 mg/kg
Description: Tmax in Sprague-Dawley rat at 1 mg/kg, po
Recorded endpoint: Tmax (min)

| Query smiles | Unit abbrev | Recorded value |
| --- | --- | --- |
| O=C1CC(=O)CC(c2cc(C(F)(F)F)cc(C(F)(F)F)c2)C1 | min | 30 |

* * *

Test system: PC-12
Assay: Inhibition of SOD1 G93A mutant protein aggregation-mediated cytotoxicity in rat PC12 cells expressing yellow fluorescent protein assessed as increase in cell viability relative to radicicol
Format: cell-based
Design: concentration or dose not given beside the values
The compounds listed here are annotated with their Efficacy.

| Compound | Unit abbrev | Efficacy |
| --- | --- | --- |
| CCOc1ccc(C2CC(=O)CC(=O)C2)c(OCC)c1 | % | 100 |
| O=C1CC(=O)CC(c2ccc(Oc3cccc(Cl)c3)cc2)C1 | % | 100 |
| CC(C)c1cccc(C2CC(=O)CC(=O)C2)c1 | % | 100 |
| O=C1CC(=O)CC(c2cccc(-c3ccccc3)c2)C1 | % | 100 |
| O=C1CC(=O)CC(c2ccc(C(F)(F)F)cc2)C1 | % | 100 |
| O=C1CC(=O)CC(c2cccc(Cl)c2)C1 | % | 100 |
| O=C1CC(=O)CC(c2cc(C(F)(F)F)cc(C(F)(F)F)c2)C1 | % | 100 |
| O=C1CC(=O)CC(c2c(Cl)cc(Cl)cc2Cl)C1 | % | 100 |
| O=C1CC(=O)CC(COc2ccccc2)C1 | % | 100 |
| O=C1CC(=O)CC(c2ccccc2Oc2ccc(F)cc2)C1 | % | 100 |
| O=C1CC(=O)CC(c2cccc(-c3ccc(Cl)cc3)c2)C1 | % | 100 |
| Cc1cc(C)c(C2CC(=O)CC(=O)C2)c(C)c1 | % | 100 |
| O=C1CC(=O)CC(c2ccccc2Cl)C1 | % | 100 |
| O=C1CC(=O)N(CCc2ccccc2)C(=O)N1CCc1ccccc1 | % | 100 |
| O=C1CC(=O)CC(c2cccc(Oc3cc(Cl)cc(Cl)c3)c2)C1 | % | 100 |
| CCc1ccccc1C1CC(=O)CC(=O)C1 | % | 100 |
| O=C1CC(=O)CC(c2cc(F)cc(F)c2)C1 | % | 100 |
| O=C1CC(=O)CC(c2c(F)cccc2F)C1 | % | 100 |
| O=C1CC(=O)CC(c2cccc(C(F)(F)F)c2)C1 | % | 100 |
| CCn1c2ccccc2c2cc(C3CC(=O)CC(=O)C3)ccc21 | % | 100 |
| O=C1CC(=O)CC([C@@H]2C[C@H]2c2cc(C(F)(F)F)cc(C(F)(F)F)c2)C1 (racemic) | % | 100 |
| CC(C)c1ccc(C2CC(=O)CC(=O)C2)cc1 | % | 100 |
| O=C1CC(=O)CC(c2ccc(F)cc2F)C1 | % | 100 |
| O=C1CC(=O)CC(c2cccc(OC(F)(F)F)c2)C1 | % | 100 |
| CCCc1ccc(C2CC(=O)CC(=O)C2)cc1 | % | 100 |
| O=C1CC(=O)CC(c2cc(Cl)cc(Cl)c2)C1 | % | 100 |
